These measurements were taken from ChEMBL document CHEMBL1135483.

biological target: GABA-A receptor; alpha-1/beta-2/gamma-2 (Rattus norvegicus) (UniProt P18508+P62813+P63138); assay: Percent stimulation of GABA-induced currents in Xenopus Oocytes expressing rat GABA-A receptor alpha-1-beta-2-gamma-2 subunits at 200 uM; type: functional, cell-based
measurement_name: Stimulation

> print(dat)
                                   molecule  reported.result
1  CCCC1(CCC)C(=O)OC[C@H]1NC(=O)OCC (racemic)             426%
2  CCCC1(CCC)C(=O)OC[C@H]1NC(=O)c1ccccc1 (racemic)             420%
3  CCCC1(CCC)C(=O)OC[C@H]1NC(=O)OC(C)(C)C (racemic)              46%
4  C=CCOC(=O)N[C@@H]1COC(=O)C1(CCC)CCC (racemic)             765%

---

target: GABA-A receptor; anion channel (Rattus norvegicus) (UniProt O09028+P15431+P18506+P18508+P19969+P20236+P23574+P23576+P28471+P28473+P30191+P62813+P63079+P63138+Q91ZM7+Q9ES14); experiment: Displacement of [35S]TBPS from Gamma-aminobutyric acid A (GABA-A) receptor of rat brain membranes at 100 uM; format: cell membranes; settings: Membrane
measurement_name: Displacement (%)

> print(dat)
                                    compound  reported.result
 1  CCCC1(CCC)C(=O)OC[C@H]1NS(=O)(=O)c1ccc(OC)cc1 (racemic)               80
 2  CCCC1(CCC)C(=O)OC[C@H]1NC(=O)c1ccccc1 (racemic)               65
 3  C=CC[C@H]1C(=O)OC[C@H]1NCc1ccccc1 (racemic)               60
 4       CCC1(C)CCSC1=O (stereo unspecified)               25
 5  CCCC1(CCC)C(=O)OC[C@H]1NC(=O)Oc1ccccc1 (racemic)               75
 6  CCCC1(CCC)C(=O)OC[C@H]1NC(=O)OCC (racemic)               30
 7  CCCC1(CCC)C(=O)OC[C@H]1NS(=O)(=O)c1ccc(Cl)cc1 (racemic)               85
 8  CCCC1(CCC)C(=O)OC[C@@H]1NC(=O)OCc1ccccc1 (stereo in doubt)               70
 9  C=CCC1(CC=C)C(=O)OC[C@H]1NCc1ccccc1 (racemic)               60
10  C=CCOC(=O)N[C@@H]1COC(=O)C1(CCC)CCC (racemic)               50
11  CCCC1(CCC)C(=O)OC[C@H]1NS(=O)(=O)c1ccc2ccccc2c1 (racemic)               75

---

Attribute: Displacement
biological target: GABA-A receptor; anion channel (Rattus norvegicus) (UniProt O09028+P15431+P18506+P18508+P19969+P20236+P23574+P23576+P28471+P28473+P30191+P62813+P63079+P63138+Q91ZM7+Q9ES14); test: Displacement of [3H]flunitrazepam from GABA-A receptor of rat brain membranes at 100 uM; type: cell membranes; details: Membrane
measurement_name: Displacement

> print(dat)
                                    molecule  reported.result
 1  CCCC1(CCC)C(=O)OC[C@H]1NC(=O)c1ccccc1 (racemic)             -15%
 2  CCCC1(CCC)C(=O)OC[C@H]1NS(=O)(=O)c1ccc(OC)cc1 (racemic)               0%
 3  C=CCC1(CC=C)C(=O)OC[C@H]1NCc1ccccc1 (racemic)             -14%
 4  CCCC1(CCC)C(=O)OC[C@H]1NS(=O)(=O)c1ccc2ccccc2c1 (racemic)               0%
 5  CCCC1(CCC)C(=O)OC[C@H]1NS(=O)(=O)c1ccc(C(F)(F)F)cc1 (racemic)             -20%
 6       CCC1(C)CCSC1=O (stereo unspecified)               0%
 7  CCCC1(CCC)C(=O)OC[C@H]1NS(=O)(=O)c1ccc(Cl)cc1 (racemic)             -25%
 8  CCCC1(CCC)C(=O)OC[C@H]1NC(=O)OCC (racemic)               0%
 9  CCCC1(CCC)C(=O)OC[C@H]1NC(=O)Oc1ccccc1 (racemic)             -25%
10  C=CC[C@H]1C(=O)OC[C@H]1NCc1ccccc1 (racemic)               0%
11  CCCC1(CCC)C(=O)OC[C@@H]1NC(=O)OCc1ccccc1 (stereo in doubt)               0%
